Attribution: PubChem BioAssay AID2060897

System: 966289-007-R4-J1-PDC complex spheroid viability
method-description: Anticancer human tumor 966289-007-R4-J1-PDC patient-derived pancreatic adenocarcinoma cell line growth inhibition [RAS]
assay-context: second compound 0.01 µM; first compound 0.0316 µM; active compounds read low
metric: viability, T/C (%)
One number for each entry, in %.

>>> value_reported("CC(=O)OC12COC1CC(O)C1(C)C(=O)C(O)C3=C(C)C(OC(=O)C(O)C(NC(=O)OC(C)(C)C)c4ccccc4)CC(O)(C(OC(=O)c4ccccc4)C21)C3(C)C (stereo not drawn) + C=CC(=O)N1CCN(c2nc(OCC3CCCN3C)nc3c(F)c(-c4nc(N)cc(C)c4C(F)(F)F)c(Cl)cc23)C(C)C1")
7.11
>>> value_reported("C=CC(=O)Nc1cc(Nc2nccc(-c3cn(C)c4ccccc34)n2)c(OC)cc1N(C)CCN(C)C + C=CC(=O)N1CCN(c2nc(OCC3CCCN3C)nc3c(F)c(-c4nc(N)cc(C)c4C(F)(F)F)c(Cl)cc23)C(C)C1")
85.5

Next compound, please.
[in] Quote viability, T/C reported for CC(Nc1ccc2c(c1)OCCn1cc(N3C(=O)OCC3C(F)F)nc1-2)C(N)=O (stereo not drawn) + C=CC(=O)N1CCN(c2nc(OCC3CCCN3C)nc3c(F)c(-c4nc(N)cc(C)c4C(F)(F)F)c(Cl)cc23)C(C)C1 please.
[out] 89.8

====

System: 966289-007-R4-J1-PDC complex spheroid viability
method-description: Anticancer human tumor 966289-007-R4-J1-PDC cell line growth inhibition [RAS]
assay-context: second compound 0.003 µM; first compound 0.3 µM; active compounds read low
metric: viability, T/C

For each of the items listed, what is its viability, T/C?
1. CCc1c2c(nc3ccc(O)cc13)-c1cc3c(c(=O)n1C2)COC(=O)[C@]3(O)CC + CCn1c(-c2cccnc2C(C)OC)c2c3cc(ccc31)N1CCOC(CC(NC(=O)C(C(C)C)N(C)C(=O)C3(F)CCN(C(=O)C#CC(C)(C)N(C)C)CC3)C(=O)N3CCCC(N3)C(=O)OCC(C)(C)C2)C1
2. CC1(C)CCC(Nc2ncc(C(F)(F)F)c(-c3c[nH]c4c(P(C)(C)=O)c(C#N)ccc34)n2)CN1 (centres undefined) + CCn1c(-c2cccnc2C(C)OC)c2c3cc(ccc31)N1CCOC(CC(NC(=O)C(C(C)C)N(C)C(=O)C3(F)CCN(C(=O)C#CC(C)(C)N(C)C)CC3)C(=O)N3CCCC(N3)C(=O)OCC(C)(C)C2)C1
3. CCc1c2c(nc3ccc(O)cc13)-c1cc3c(c(=O)n1C2)COC(=O)[C@]3(O)CC + CCn1c(-c2cc(N3CCN(C)CC3)cnc2C(C)OC)c2c3cc(ccc31)-c1csc(n1)CC(NC(=O)C1CC1C)C(=O)N1CCCC(N1)C(=O)OCC(C)(C)C2
4. CC1(C)CCC(Nc2ncc(C(F)(F)F)c(-c3c[nH]c4c(P(C)(C)=O)c(C#N)ccc34)n2)CN1 (centres undefined) + CCn1c(-c2cc(N3CCN(C)CC3)cnc2C(C)OC)c2c3cc(ccc31)-c1csc(n1)CC(NC(=O)C1CC1C)C(=O)N1CCCC(N1)C(=O)OCC(C)(C)C2

[out]
0.67%
7.11%
0.57%
9.36%

====

Tested on: 966289-007-R4-J1-PDC complex spheroid viability
method-description: Anticancer human tumor 966289-007-R4-J1-PDC cell line growth inhibition [RAS];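 further: spheroids exposed to agents for one week before readout; percent viability relative to DMSO vehicle control wells as 100%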
assay-context: second compound 1 µM; first compound 0.316 µM; active compounds read low
metric: viability, T/C

Worked cases, viability, T/C given:
>>> value_reported("C=CC(=O)Nc1cc(Nc2nccc(-c3cn(C)c4ccccc34)n2)c(OC)cc1N(C)CCN(C)C + C=CC(=O)N1CCN(c2nc(OCC3CCCN3C)nc3c(F)c(-c4nc(N)cc(C)c4C(F)(F)F)c(Cl)cc23)C(C)C1")
"96%"
>>> value_reported("Nc1ccn(C2OC(CO)C(O)C2(F)F)c(=O)n1 (stereo not given) + C=CC(=O)N1CCN(c2nc(OCC3CCCN3C)nc3c(F)c(-c4nc(N)cc(C)c4C(F)(F)F)c(Cl)cc23)C(C)C1")
"1.74%"
>>> value_reported("NC1c2ccccc2OC12CCN(c1cnc3c(N4CCCc5ncccc54)n[nH]c3n1)CC2 (stereo not given) + C#Cc1c(F)ccc2cc(O)cc(-c3ncc4c(N5CC6CCC(C5)N6)nc(OCC56CCCN5CC(F)C6)nc4c3F)c12")
"118%"
>>> value_reported("CCC(CC)c1cc(NC2CCC(N)C2)n2nccc2n1 (stereo not given) + C=CC(=O)N1CCN(c2nc(OCC3CCCN3C)nc3c(F)c(-c4nc(N)cc(C)c4C(F)(F)F)c(Cl)cc23)C(C)C1")
"119%"

Now consider the entry below.
[in] GET viability, T/C | system: 966289-007-R4-J1-PDC complex spheroid viability | item: CC(C)NCC(C(=O)N1CCN(c2ncnc3c2C(C)CC3O)CC1)c1ccc(Cl)cc1 (stereo not given) + C=CC(=O)N1CCN(c2nc(OCC3CCCN3C)nc3c(F)c(-c4nc(N)cc(C)c4C(F)(F)F)c(Cl)cc23)C(C)C1
[out] 115%

====

Consider the following compounds; for each one, report its viability, T/C.
Tested on: 966289-007-R4-J1-PDC complex spheroid viability
method-description: Anticancer human tumor 966289-007-R4-J1-PDC cell line growth inhibition [RAS];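 further: spheroids exposed to agents for one week before readout; percent viability relative to DMSO vehicle control wells as 100%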
assay-context: second compound 3.16 µM; first compound 0.316 µM; active compounds read low
Give bare numbers, in %.

As a guide, the following entries are already answered.
>>> value_reported("CCN1CCN(Cc2ccc(Nc3ncc(F)c(-c4cc(F)c5nc(C)n(C(C)C)c5c4)n3)nc2)CC1 + C#Cc1c(F)ccc2cc(O)cc(-c3ncc4c(N5CC6CCC(C5)N6)nc(OCC56CCCN5CC(F)C6)nc4c3F)c12")
88.8
>>> value_reported("CC(Nc1ccc2c(c1)OCCn1cc(N3C(=O)OCC3C(F)F)nc1-2)C(N)=O (stereo not drawn) + C#Cc1c(F)ccc2cc(O)cc(-c3ncc4c(N5CC6CCC(C5)N6)nc(OCC56CCCN5CC(F)C6)nc4c3F)c12")
115

Now examine the next entry.
[in] Report measured viability, T/C; entry is C[C@@H](NC(=O)c1ncnc(N)c1Cl)c1ncc(C(=O)Nc2cc(C(F)(F)F)c(Cl)cn2)s1 + C#Cc1c(F)ccc2cc(O)cc(-c3ncc4c(N5CC6CCC(C5)N6)nc(OCC56CCCN5CC(F)C6)nc4c3F)c12
[out] 118

====

Test system: 966289-007-R4-J1-PDC complex spheroid viability
method-description: Anticancer human tumor 966289-007-R4-J1-PDC cell line growth inhibition [RAS]; active means viability on the fitted dose curve at most 10% of control; inactive means the rest;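 further: spheroids exposed to agents for one week before readout; percent viability relative to DMSO vehicle control wells as 100%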
assay-context: second compound 0.1 µM; first compound 0.3 µM
Lab note: assign the record to one of yes for active, no for inactive

Some solved entries appear below for comparison.
>>> answer_label("CCc1c2c(nc3ccc(O)cc13)-c1cc3c(c(=O)n1C2)COC(=O)[C@]3(O)CC + C#Cc1c(F)ccc2cc(O)cc(-c3ncc4c(N5CC6CCC(C5)N6)nc(OCC56CCCN5CC(F)C6)nc4c3F)c12")
"yes"
>>> answer_label("CC1(C)CCC(Nc2ncc(C(F)(F)F)c(-c3c[nH]c4c(P(C)(C)=O)c(C#N)ccc34)n2)CN1 (centres undefined) + C=CC(=O)N1CCN(c2nc(OCC3CCCN3C)nc3c(F)c(-c4nc(N)cc(C)c4C(F)(F)F)c(Cl)cc23)C(C)C1")
"yes"

[in] So what was the verdict on CC1(C)CCC(Nc2ncc(C(F)(F)F)c(-c3c[nH]c4c(P(C)(C)=O)c(C#N)ccc34)n2)CN1 (centres undefined) + C#Cc1c(F)ccc2cc(O)cc(-c3ncc4c(N5CC6CCC(C5)N6)nc(OCC56CCCN5CC(F)C6)nc4c3F)c12 in this test?
[out] no

[in] What was the test verdict on CCc1c2c(nc3ccc(O)cc13)-c1cc3c(c(=O)n1C2)COC(=O)[C@]3(O)CC + C=CC(=O)N1CCN(c2nc(OCC3CCCN3C)nc3c(F)c(-c4nc(N)cc(C)c4C(F)(F)F)c(Cl)cc23)C(C)C1 ?
[out] yes

====

Field: viability, T/C. Provide a value for each of the compounds that follow.
Tested on: 966289-007-R4-J1-PDC complex spheroid viability
method-description: Anticancer human tumor 966289-007-R4-J1-PDC cell line growth inhibition [RAS];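 further: spheroids exposed to agents for one week before readout; percent viability relative to DMSO vehicle control wells as 100%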
assay-context: second compound 0.00949 µM; first compound 10 µM; active compounds read low
Answers are plain numbers, in %.

>>> value_reported("CC(Nc1ccc2c(c1)OCCn1cc(N3C(=O)OCC3C(F)F)nc1-2)C(N)=O (stereo not drawn) + CCn1c(-c2cccnc2C(C)OC)c2c3cc(ccc31)N1CCOC(CC(NC(=O)C(C(C)C)N(C)C(=O)C3(F)CCN(C(=O)C#CC(C)(C)N(C)C)CC3)C(=O)N3CCCC(N3)C(=O)OCC(C)(C)C2)C1")
77.3
>>> value_reported("CC1(O)CCCC1n1c(=O)c(C(F)F)cc2cnc(NC3CCN(S(C)(=O)=O)CC3)nc21 (stereo not drawn) + CCn1c(-c2cccnc2C(C)OC)c2c3cc(ccc31)N1CCOC(CC(NC(=O)C(C(C)C)N(C)C(=O)C3(F)CCN(C(=O)C#CC(C)(C)N(C)C)CC3)C(=O)N3CCCC(N3)C(=O)OCC(C)(C)C2)C1")
2.04
>>> value_reported("CC(Nc1ccc2c(c1)OCCn1cc(N3C(=O)OCC3C(F)F)nc1-2)C(N)=O (stereo not drawn) + CCn1c(-c2cc(N3CCN(C)CC3)cnc2C(C)OC)c2c3cc(ccc31)-c1csc(n1)CC(NC(=O)C1CC1C)C(=O)N1CCCC(N1)C(=O)OCC(C)(C)C2")
95.2
>>> value_reported("C[C@@H](NC(=O)c1ncnc(N)c1Cl)c1ncc(C(=O)Nc2cc(C(F)(F)F)c(Cl)cn2)s1 + CCn1c(-c2cc(N3CCN(C)CC3)cnc2C(C)OC)c2c3cc(ccc31)-c1csc(n1)CC(NC(=O)C1CC1C)C(=O)N1CCCC(N1)C(=O)OCC(C)(C)C2")
110

Please look at the items below and tell me viability, T/C for each one, in order.
1. C[C@@H](NC(=O)c1ncnc(N)c1Cl)c1ncc(C(=O)Nc2cc(C(F)(F)F)c(Cl)cn2)s1 + CCn1c(-c2cccnc2C(C)OC)c2c3cc(ccc31)N1CCOC(CC(NC(=O)C(C(C)C)N(C)C(=O)C3(F)CCN(C(=O)C#CC(C)(C)N(C)C)CC3)C(=O)N3CCCC(N3)C(=O)OCC(C)(C)C2)C1
2. CC(C)NCC(C(=O)N1CCN(c2ncnc3c2C(C)CC3O)CC1)c1ccc(Cl)cc1 (stereo not drawn) + CCn1c(-c2cc(N3CCN(C)CC3)cnc2C(C)OC)c2c3cc(ccc31)-c1csc(n1)CC(NC(=O)C1CC1C)C(=O)N1CCCC(N1)C(=O)OCC(C)(C)C2
3. CC(=O)OC12COC1CC(O)C1(C)C(=O)C(O)C3=C(C)C(OC(=O)C(O)C(NC(=O)OC(C)(C)C)c4ccccc4)CC(O)(C(OC(=O)c4ccccc4)C21)C3(C)C (stereo not drawn) + CCn1c(-c2cccnc2C(C)OC)c2c3cc(ccc31)N1CCOC(CC(NC(=O)C(C(C)C)N(C)C(=O)C3(F)CCN(C(=O)C#CC(C)(C)N(C)C)CC3)C(=O)N3CCCC(N3)C(=O)OCC(C)(C)C2)C1
4. NC1c2ccccc2OC12CCN(c1cnc3c(N4CCCc5ncccc54)n[nH]c3n1)CC2 (stereo not drawn) + CCn1c(-c2cc(N3CCN(C)CC3)cnc2C(C)OC)c2c3cc(ccc31)-c1csc(n1)CC(NC(=O)C1CC1C)C(=O)N1CCCC(N1)C(=O)OCC(C)(C)C2

[out]
1: 111; 2: 33.6; 3: 59.7; 4: 89.9
